- assay procedure: ATG_BRE_CIS: Attagene CIS-FACTORIAL HepG2 Assay for human Bone Morphogenetic Protein (BMP) Response Element (BRE) (AID 2282933)
- condition context: HepG2 BMP response element reporter, Attagene transcription factor profiling; actives raise or lower the signal
Active and inactive are the calls of the source. How the source made its calls: active means hit-call score of the fitted dose curve at least 0.9, where 1 is the maximum; inactive means score below 0.9.
The reply should name one outcome from active, inactive

Recorded results for 8 compounds are shown here.
CCOC(=O)CC(=O)c1ccccc1: inactive
C1CNCCN1: inactive
CC(=O)CCC1=C(C)CCCC1(C)C: inactive
c1ccc(-c2nc3ccccc3[nH]2)cc1: inactive
O=C(O)CC(C(=O)O)S(=O)(=O)O (centres undefined): inactive
Clc1cccnc1: inactive
O=C(O)c1ccc2c(c1)C(=O)OC2=O: inactive
CCCCCCC=O: inactive

Call for entry `Nc1ccnc(=O)[nH]1` :
inactive

Next up: `Clc1cc(Cl)c(Cl)c(Cl)c1Cl`
inactive

Next up: `CCOC(=O)C1=NOC(c2ccccc2)(c2ccccc2)C1`
inactive

Next up: `Nc1ccc(C(=O)OCCCOC(=O)c2ccc(N)cc2)cc1`
inactive
